tested on: NCI-H460 lung; assay: NCI-60 one-dose screen, 48 h (100 = growth as untreated, 0 = no growth, -100 = all killed); conditions: 10 µM unless noted
Compounds without any hit were thinned out: in the full panel of roughly 83,000, 20% have a hit.
OBSERVED_PROPERTY: growth (%)
Write the answer as a number in %, unit excluded.

Hello, I am looking for reported growth with NCI-H460 lung for Cc1ccc(-c2ccc(/C=C(\C#N)c3nc(-c4ccco4)cs3)o2)cc1 . Could you help? 99.3

Query for NCI-H460 lung: what growth does the record show for CN1CCN(c2ccc3nc(-c4[nH]ncc4Nc4ncnc5c4OCCCN5)[nH]c3c2)CC1 ? -69.8

For the record Cc1ccc(Nc2c(C(N)=O)cnc3ccc(S(=O)(=O)Nc4cc(C)on4)cc23)cc1 , what value of growth is listed for NCI-H460 lung? 103

Lab note: need growth for COC(=O)CCCCCn1c2ccccc2c2c3c(c4c5ccccc5[nH]c4c21)C(=O)N(O)C3=O on NCI-H460 lung, anyone have it? 33.4

Give growth (NCI-H460 lung) of the following compound: CC(C)C[C@@H](NC(=O)[C@@H](Cc1ccccc1)NC(=O)c1cnccn1)B1O[C@H]2[C@H](O)[C@@H](C(=O)NCCCC[C@@H]3NC(=O)[C@@H](Cc4ccccc4)NC(=O)[C@H](CC(=O)O)NC(=O)CNC(=O)[C@H](CCCN=C(N)N)NC3=O)O[C@@H](CN)[C@H]2O1 -44.6

For the record O=C(c1ccccc1)C(CN1CCOCC1)c1ccccc1 (stereo unspecified) , what value of growth is listed for NCI-H460 lung? 79.4

###

Test system: NCI-H460 lung
Experiment: NCI-60 one-dose screen, 48 h
Settings: 10 µM unless noted
Method: Growth inhibition of the NCI-H460 human Non-Small Cell Lung tumor cell line is measured as a screen for anti-cancer activity. Cells are grown in 96 well plates and exposed to the test compound for 48 hours. Compounds are tested at a single concentration, which is 10^-5 M for most compounds. The reported endpoint is percent growth (GI% or GIPRCNT), where numbers from 0 - 100% represent growth inhibition, and numbers from -100% - 0 represent cell death. […]
About 83,000 compounds went through this panel and 20% of them were active in at least one assay; those are over-represented in the sample as a whole. Activity calls are given as the source filed them. How the source made its calls: active means growth percent below 10; inactive means the rest.
Answer with one of the outcomes Y (active), N (inactive)

O=C1c2ccccc2NC(c2cn(-c3ccccc3)nc2-c2cccs2)N1Cc1ccccc1 (stereo not drawn)
N
Nc1ccc(Br)cn1
N

Shifting focus to the molecule that follows.
So what was the verdict on CCCCC[C@H]1C/C=C2/C(=O)C(Cl)=C[C@@H]2C/C=C\CCCC(=O)O1 in this test? Y

###

test system: HCC-2998 colon; test: NCI-60 one-dose screen, 48 h (100 = growth as untreated, 0 = no growth, -100 = all killed); conditions: 10 µM unless noted
Compounds without any hit were thinned out: in the full panel of roughly 83,000, 20% have a hit.
OBSERVED_PROPERTY: growth (%)
The reply should contain only the number, in %.

Examples from the recorded data:
COC(=O)[C@]12CC[C@@H](C)[C@H](C)[C@@H]1C1=CC[C@@H]3[C@@]4(C)C[C@@H](OC(C)=O)[C@H](O)[C@@](C)(CO)[C@@H]4[C@H](O)C[C@@]3(C)[C@]1(C)CC2
-87.8
Cc1ccc(N(CC(=O)Nc2ccc(S(=O)(=O)N3CCC(N4CCCC4)CC3)cc2)S(=O)(=O)c2ccc(Cl)cc2)cc1
-48.9
Brc1ccc2[nH]cc(-c3nc(-c4c[nH]c5ncccc45)cs3)c2c1
60.2

With those in mind, consider the next compound.
Given CCc1nnc(NC(=O)c2ccoc2COc2ccccc2)s1 , state its recorded growth. 69

###

System: IGROV1 ovarian
Test: NCI-60 one-dose screen, 48 h (100 = growth as untreated, 0 = no growth, -100 = all killed)
Details: 10 µM unless noted
Experimental: Growth inhibition of the IGROV1 human tumor cell line is measured as a screen for anti-cancer activity. Cells are grown in 96 well plates and exposed to the test compound for 48 hours. Compounds are tested at a single concentration, which is 10^-5 M for most compounds. The reported endpoint is percent growth (GI% or GIPRCNT), where numbers from 0 - 100% represent growth inhibition, and numbers from -100% - 0 represent cell death. For example, a value of 40 represents 60% growth inhibition. […]
The panel holds about 83,000 compounds, 20% with a hit somewhere; the sample as a whole holds those more often.
Binarize growth at 90%; below is 1 (yes), at or above is 0 (no).

Below are worked cases with known answers.
Cc1oc(-c2ccccc2Cl)cc1C(=O)Nc1ccc(S(N)(=O)=O)cc1
0 (no)
NCCNc1nc(-c2ccccc2)nc2nc(-c3ccccc3)oc12
1 (yes)
Cc1cc(C)c(NC(=O)c2sc3nc4c(cc3c2N)CCCC4)c(C)c1
1 (yes)

Answer whether the compound COc1cc(OC)c2c(c1)c1nc3cc(C)c(C)cc3nc1n2CCN(C)C has growth strictly less than 90% 1 (yes)

Given the entry Cc1cccc(C)c1NC(=O)CSC(=S)N1CCN(CCOCCO)CC1 , would its reported growth be below 90%? 0 (no)

###

system: SW-620 colon; assay: NCI-60 one-dose screen, 48 h; conditions: 10 µM unless noted
Compounds without any hit were thinned out: in the full panel of roughly 83,000, 20% have a hit. Activity calls are given as the source filed them. How the source made its calls: active means growth percent below 10; inactive means the rest.
Allowed answers: true = active, false = inactive

Field: example entries. Status: answers known.
CN1CCN(CCOc2ccc(-c3cnc4c(-c5ccccc5F)cnn4c3)cc2)CC1
true
COC(=O)[C@]12CC[C@@H](C)[C@H](C)[C@@H]1C1=CC[C@@H]3[C@@]4(C)C[C@@H](OC(C)=O)[C@H](OC(C)=O)[C@@](C)(COC(C)=O)[C@@H]4[C@H](O)C[C@@]3(C)[C@]1(C)CC2
false
Nc1c(C(=O)Nc2cccc(Br)c2)sc2nc3c(cc12)C(=O)CCC3
false
CC1(C)CC[C@]2(CO)CC[C@]3(C)C(=CC[C@@H]4[C@@]5(C)CC[C@H](NCO)C(C)(C)[C@@H]5CC[C@]43C)[C@@H]2C1
true
COc1cc2c3c(c4c5ccccc5[nH]c4c2c(OC)c1OC)C(=O)N(O)C3=O
false

Consider the additional compound presented here.
So what was the verdict on C=C(C)[C@@H]1CC[C@]2(C)[C@H](CC[C@@H]3[C@H]4[C@H]5OC[C@@]4(CCC5(C)C)CC[C@]32C)[C@@]1(C)CCCN in this test? true

###

# growth listing for each entry below
test system: NCI-H460 lung; assay: NCI-60 one-dose screen, 48 h (100 = growth as untreated, 0 = no growth, -100 = all killed); conditions: 10 µM unless noted
This is part of a sample that, as a whole, favours compounds with a hit. Of some 83,000 tested, about 20% had one in any assay. The source made the active and inactive calls. How the source made its calls: active means growth percent below 10; inactive means the rest.

COC(=O)c1cc(=O)nc(N/N=C/c2ccc(C)cc2)s1
106% (inactive)

Look up growth for this compound: CC(=O)c1c(C)[nH]c(-c2nc3ccc(N4CCN(C)CC4)cc3[nH]2)c1-c1ccc(N(C)C)cc1 53% (inactive)

Look up growth for this compound: N#C/C(=C\c1ccc(-c2ccc(Cl)cc2)o1)c1nc(-c2ccco2)cs1 96% (inactive)

I am curious: what growth value has been reported for Nc1ccc(Cl)cn1 ? 105% (inactive)

Name the recorded growth for CC1(C)NC2=C(C(Nc3cccnc3)N1)C(c1ccc([N+](=O)[O-])cc1)C(C(=O)c1ccc(N=[N+]=[N-])cc1)O2 (configuration not stated) . 95.4% (inactive)

Item under review: COc1cccc(-c2nn(-c3ccccc3)cc2-c2ccnc(NCCCN)c2)c1 . Reported growth? 27.9% (inactive)

Fill in the blank: the reported growth of CCN1CCN(c2nc(C)cc(N(CCCNc3ccnc4cc(Cl)ccc34)Cc3ccco3)n2)CC1 is ____. 39.9% (inactive)

Record request: growth value, item N=c1c(S(=O)(=O)c2ccccc2)cc2c(=O)n3ccccc3nc2n1C1CCCC1 105% (inactive)

Request the reported growth associated with CC(C)(C)c1[nH]nc2c1C(c1cc3ccccc3[nH]c1=O)Nc1cc(C(=O)OCc3ccccc3)ccc1N2 (configuration not stated) 19.4% (inactive)

###

test system: SR leukemia; experiment: NCI-60 one-dose screen, 48 h; conditions: 10 µM unless noted
The panel holds about 83,000 compounds, 20% with a hit somewhere; the sample as a whole holds those more often. Active and inactive are the calls of the source. How the source made its calls: active means growth percent below 10; inactive means the rest.
Select the correct class. Options are label 1 (active), label 0 (inactive) and nothing else.

COc1ccc2[nH]c(-c3ccc(Cl)cc3)cc(=O)c2c1
label 0
CCCCCCCC(=O)SCC/C=C/[C@@H]1CC(=O)NCc2cccc(n2)CN(Cc2ccc3ccccc3c2)CC(=O)N[C@@H](C(C)C)C(=O)O1
label 1

What outcome does the record of this test show for Cn1cc(-c2csc(-c3cn(CCNC(=O)OC(C)(C)C)c4ccccc34)n2)c2cccnc21 ? label 0
